Target: Coagulation factor VII (Homo sapiens, UniProt P08709)
Sequence (P08709 61-212 limits assumed): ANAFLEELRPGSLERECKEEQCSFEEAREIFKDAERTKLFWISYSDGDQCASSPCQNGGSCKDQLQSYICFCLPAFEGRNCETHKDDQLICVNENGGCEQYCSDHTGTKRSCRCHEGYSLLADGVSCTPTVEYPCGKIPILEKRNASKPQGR
Sequence (P08709 213-466 limits assumed): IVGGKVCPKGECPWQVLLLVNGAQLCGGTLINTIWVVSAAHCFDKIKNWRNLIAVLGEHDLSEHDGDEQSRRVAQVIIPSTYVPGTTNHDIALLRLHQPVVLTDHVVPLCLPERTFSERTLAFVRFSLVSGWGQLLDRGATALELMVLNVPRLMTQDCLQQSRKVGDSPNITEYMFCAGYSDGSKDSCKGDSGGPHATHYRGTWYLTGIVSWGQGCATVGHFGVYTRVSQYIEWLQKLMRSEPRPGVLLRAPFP
Assay: The compound was tested for inhibition of human coagulation factor VII
# Lookup of reported pKi keyed by entry
Note on units: pKi is unitless, being -log10 of a concentration expressed in mol/L.

INSERT INTO assay_data (molecule, target, observed) VALUES
  ('COc1cc2[nH]c(-c3cccc(-c4ccccc4)c3O)cc2cc1C(=N)N', 'Coagulation factor VII (Homo sapiens, UniProt P08709)', 4.80);

Incoming: Could you share which pKi value was measured for `N=C(N)c1ccc2[nH]c(-c3cccc(-c4ccccc4)c3O)cc2c1Cl` ?
Outgoing: 5.26

Incoming: Quick one: pKi of `N=C(N)c1ccc2[nH]c(-c3cccc(-c4ccccc4)c3O)cc2c1` ?
Outgoing: 6.80

Incoming: Which measured pKi value corresponds to `Cc1cc2[nH]c(-c3cccc(-c4ccccc4)c3O)cc2cc1C(=N)N` ?
Outgoing: 5.15

----------
Molecular target: Plasma kallikrein (Homo sapiens)
Sequence (P03952 20-390 limits assumed): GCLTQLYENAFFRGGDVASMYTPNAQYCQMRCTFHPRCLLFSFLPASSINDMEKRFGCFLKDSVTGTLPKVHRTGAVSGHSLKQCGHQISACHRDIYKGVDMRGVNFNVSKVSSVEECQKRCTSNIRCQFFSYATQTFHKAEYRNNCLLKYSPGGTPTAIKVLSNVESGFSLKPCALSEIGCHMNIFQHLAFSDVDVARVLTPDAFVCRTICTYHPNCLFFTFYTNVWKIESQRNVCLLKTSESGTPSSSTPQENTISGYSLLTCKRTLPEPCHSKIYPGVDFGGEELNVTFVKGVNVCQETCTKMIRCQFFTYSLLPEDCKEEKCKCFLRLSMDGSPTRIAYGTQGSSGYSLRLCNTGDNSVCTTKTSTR
Sequence (P03952 391-638 limits assumed): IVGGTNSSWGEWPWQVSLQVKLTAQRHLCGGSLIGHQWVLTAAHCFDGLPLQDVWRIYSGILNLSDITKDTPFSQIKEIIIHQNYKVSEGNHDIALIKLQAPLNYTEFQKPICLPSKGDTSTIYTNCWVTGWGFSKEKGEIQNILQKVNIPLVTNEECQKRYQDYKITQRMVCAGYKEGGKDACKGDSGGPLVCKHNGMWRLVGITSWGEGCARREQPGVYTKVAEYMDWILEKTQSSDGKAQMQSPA
Test: The compound was tested for inhibition of human p-kallikrein
pKi: −log10 of the molar value.
Kindly return met if reported pKi is no lower than 6; return not met if it is lower.

INSERT INTO assay_data (molecule, class) VALUES
  ('Cc1cc2[nH]c(-c3cccc(-c4ccccc4)c3O)cc2cc1C(=N)N', 'not met'),
  ('N=C(N)c1ccc2[nH]c(-c3cccc(-c4ccccc4)c3O)cc2c1', 'met'),
  ('COc1cc2[nH]c(-c3cccc(-c4ccccc4)c3O)cc2cc1C(=N)N', 'met');

Lab note: next compound to report on.
Incoming: Kindly determine if pKi recorded for `N=C(N)c1cc2cc(-c3cccc(-c4ccccc4)c3O)[nH]c2cc1F` is above or exactly 6.
Outgoing: met

----------
Assay: Plasma clearance of compound in Sprague-Dawley Rat (Wt 286) was determined after iv administration at a dose of 1 mg/kg
Type: ADME, organism-based
Set-up: dose 1 mg/kg, route intravenous
Conditions: read-out: Clp
readout.name: clearance (mL/min/kg)
The figure you give is taken to be in mL/min/kg; do not add the unit.

Incoming: For `N=C(N)c1ccc2[nH]c(-c3cccc(-c4ccccc4)c3O)cc2c1` , what is its reported clearance?
Outgoing: 121

----------
Consider compounds characterized by their pKi with Prothrombin (Homo sapiens, UniProt P00734).
Schema: pKi number; meaning minus log10 of the concentration expressed in molar units.

INSERT INTO measurements (molecule, target, observed) VALUES
  ('N=C(N)c1ccc2[nH]c(-c3cccc(-c4ccccc4)c3O)cc2c1Cl', 'Prothrombin (Homo sapiens, UniProt P00734)', 4.19);

Moving on to another compound below.
Incoming: Checklist item: pKi tested on Prothrombin (Homo sapiens, UniProt P00734), entry `N=C(N)c1cc2cc(-c3cccc(-c4ccccc4)c3O)[nH]c2cc1F` , value?
Outgoing: 5.12

----------
Assay: terminal half-life in Sprague-Dawley Rat (Wt 286) was determined after iv administration at a dose of 1 mg/kg
Format: ADME, organism-based
Set-up: dose 1 mg/kg, route intravenous
Settings: in vivo
readout.name: half-life
Remember to put the unit after the number in your answer.

Incoming: Entry `N=C(N)c1ccc2[nH]c(-c3cccc(-c4ccccc4)c3O)cc2c1` : reported half-life = ?
Outgoing: 1.7 h

----------
Assay: terminal half-life in Sprague-Dawley Rat (Wt 294) was determined after iv administration at a dose of 2 mg/kg
Format: ADME, organism-based
Design: dose 2 mg/kg, route intravenous
Details: in vivo
readout.name: half-life (h)
Enter your answer as a number in h; do not include the unit.

Incoming: Query: half-life; subject: `N=C(N)c1cc2cc(-c3cccc(-c4ccccc4)c3O)[nH]c2cc1Cl`
Outgoing: 3.15

----------
Test system: Rattus norvegicus
Experiment: Integrated area under the plasma concentration in Sprague-Dawley Rat (Wt 294) was determined after iv administration at a dose of 2 mg/kg
Type: ADME, organism-based
Parameters: dose 2 mg/kg, route intravenous
Conditions: in vivo
readout.name: AUC (µM·h)
Value expressed in µM·h; do not type the unit.

Incoming: Lab request: please report AUC under test system Rattus norvegicus for `N=C(N)c1cc2cc(-c3cccc(-c4ccccc4)c3O)[nH]c2cc1Cl`
Outgoing: 1.42

----------
Tested on: Rattus norvegicus
Assay: Area undercurve in Sprague-Dawley Rat (Wt 286) was determined after iv administration at a dose of 1 mg/kg
Assay type: ADME, organism-based
Parameters: dose 1 mg/kg, route intravenous
Details: in vivo
readout.name: AUC

Incoming: Recorded AUC for `N=C(N)c1ccc2[nH]c(-c3cccc(-c4ccccc4)c3O)cc2c1` , please?
Outgoing: 0.4 µM·h

----------
Assay system Tissue-type plasminogen activator (Homo sapiens); read-out recorded as Ki.
Unit µM implied. Number only.

INSERT INTO assay_data (molecule, readout_name, observed) VALUES
  ('Cc1cc2[nH]c(-c3cccc(-c4ccccc4)c3O)cc2cc1C(=N)N', 'Ki', 39);

Incoming: Give the measured Ki of `N=C(N)c1ccc2[nH]c(-c3cccc(-c4ccccc4)c3O)cc2c1Cl` .
Outgoing: 3.3

----------
Target: Trypsin (Homo sapiens, UniProt P07477+P07478+P35030)
Experiment: The compound was tested for inhibition of human trypsin
Type: protein assay
# if measured Ki < 1 µM: y  # else: n

// known answers, use as guide
INSERT INTO assay_data (molecule, class) VALUES
  ('N=C(N)c1ccc2[nH]c(-c3cccc(-c4ccccc4)c3O)cc2c1', 'y'),
  ('N=C(N)c1cc2cc(-c3cccc(-c4ccccc4)c3O)[nH]c2cc1F', 'n'),
  ('Cc1cc2[nH]c(-c3cccc(-c4ccccc4)c3O)cc2cc1C(=N)N', 'n'),
  ('N=C(N)c1ccc2[nH]c(-c3cccc(-c4ccccc4)c3O)cc2c1Cl', 'n'),
  ('COc1cc2[nH]c(-c3cccc(-c4ccccc4)c3O)cc2cc1C(=N)N', 'n');

Incoming: Please let me know if `N=C(N)c1cc2cc(-c3cccc(-c4ccccc4)c3O)[nH]c2cc1O` shows Ki below 1 µM.
Outgoing: n

----------
Urokinase-type plasminogen activator (Homo sapiens) data, read-out pKi
Note on units: pKi is unitless, being -log10 of a concentration expressed in mol/L.

Study these solved cases before continuing.
INSERT INTO measurements (molecule, observed) VALUES
  ('COc1cc2[nH]c(-c3cccc(-c4ccccc4)c3O)cc2cc1C(=N)N', 6.44),
  ('N=C(N)c1ccc2[nH]c(-c3cccc(-c4ccccc4)c3O)cc2c1Cl', 6.31);

Now for a further molecule.
Incoming: Field: pKi (Urokinase-type plasminogen activator (Homo sapiens)). Entry: `Cc1cc2[nH]c(-c3cccc(-c4ccccc4)c3O)cc2cc1C(=N)N`
Outgoing: 7.00

----------
Target: UniProt P00742
Sequence (P00742 41-179 limits assumed): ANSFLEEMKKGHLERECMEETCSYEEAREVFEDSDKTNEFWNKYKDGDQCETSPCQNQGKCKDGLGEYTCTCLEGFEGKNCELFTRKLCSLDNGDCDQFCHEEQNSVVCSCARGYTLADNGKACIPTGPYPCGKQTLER
Sequence (P00742 235-488 limits assumed): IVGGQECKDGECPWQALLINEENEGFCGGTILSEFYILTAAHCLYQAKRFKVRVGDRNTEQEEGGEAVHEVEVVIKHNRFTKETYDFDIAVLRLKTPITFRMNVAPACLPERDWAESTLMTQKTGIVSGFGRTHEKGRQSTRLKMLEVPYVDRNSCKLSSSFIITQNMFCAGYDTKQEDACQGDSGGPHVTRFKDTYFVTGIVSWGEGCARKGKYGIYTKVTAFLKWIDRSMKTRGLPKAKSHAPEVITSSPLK
readout.name: Ki (µM)
Respond with the bare value in µM.

INSERT INTO measurements (molecule, readout_name, u, observed) VALUES
  ('N=C(N)c1ccc2[nH]c(-c3cccc(-c4ccccc4)c3O)cc2c1Cl', 'Ki', 'µM', 5.2);

Incoming: Which measured Ki belongs to `COc1cc2[nH]c(-c3cccc(-c4ccccc4)c3O)cc2cc1C(=N)N` , tested on UniProt P00742?
Outgoing: 26

----------
Test: Volume of distribution in Sprague-Dawley Rat (Wt 294) was determined after iv administration at a dose of 2 mg/kg
Assay type: ADME, organism-based
Set-up: dose 2 mg/kg, route intravenous
Details: in vivo, read-out: Vc
readout.name: Vd (L/kg)
API: value field is a number in L/kg; no unit string.

Incoming: Looking for the measured Vd of `N=C(N)c1cc2cc(-c3cccc(-c4ccccc4)c3O)[nH]c2cc1Cl` , can you help?
Outgoing: 0.346

----------
Test: mean residence time in Sprague-Dawley Rat (Wt 286) was determined after iv administration at a dose of 1 mg/kg
Format: ADME, organism-based
Set-up: dose 1 mg/kg, route intravenous
Conditions: in vivo
readout.name: MRT (h)
Unit h implied. Number only.

Incoming: If you can, please state the reported MRT value of `N=C(N)c1ccc2[nH]c(-c3cccc(-c4ccccc4)c3O)cc2c1` .
Outgoing: 1.77

----------
Each entry below carries its measured pKi, system: Prothrombin (Homo sapiens).
pKi: −log10 of the molar value.

Known results for compounds:
INSERT INTO assay_data (molecule, observed) VALUES
  ('Cc1cc2[nH]c(-c3cccc(-c4ccccc4)c3O)cc2cc1C(=N)N', '< 4.12'),
  ('N=C(N)c1cc2cc(-c3cccc(-c4ccccc4)c3O)[nH]c2cc1O', '< 4.12');

Now for the compound whose pKi we want.
Incoming: Value lookup for pKi; key = `COc1cc2[nH]c(-c3cccc(-c4ccccc4)c3O)cc2cc1C(=N)N`
Outgoing: < 4.12
